Sourced from paper PMC5540273

System: FGFR3
conditionLabel: concentration: 1 μM,replicates: in singlicate; n = 1;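 also: KINOMEscan kinase panel screen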
readoutLabel: %Inh (%)
One number for each entry, in %.

Reference set (4 entries):
Consider "Nc1nccc(-c2ccc3c(N)n[nH]c3c2)n1" . Its measured %Inh is 0

Consider "C[C@@H](Oc1cc(-n2cnc3ccc(-c4ccncc4)cc32)sc1C(N)=O)c1ccccc1Cl" . Its measured %Inh is 29

Consider "Cl.Cl.NC[C@H](CC1CCCCC1)NC(=O)c1ccc(-c2ccnc3[nH]ccc23)s1" . Its measured %Inh is 6

Consider "C[C@@H](Oc1cc(-n2cnc3cc(-c4cnn(C)c4)ccc32)sc1C(N)=O)c1ccccc1Cl" . Its measured %Inh is 92.7

Now turn to the next compound.
Consider "Cc1cccc2c(-c3ccncc3)c(-c3ccc(F)cc3)nn12.Cl" . Its measured %Inh is 4

###

Test system: RIPK5
conditionLabel: concentration: 1 μM,replicates: in singlicate; n = 1
Record form. Attribute: %Inh. Fill in for each entry.
Numbers only, in %.

Consider "CCn1c(-c2nonc2N)nc2cncc(Br)c21" . Its measured %Inh is 1

Consider "C[C@@H]1CNc2c(sc3ccc4nc(-c5ccc(O)cc5)ccc4c23)C(=O)N1" . Its measured %Inh is 27

Consider "CN(c1ccccc1CNc1nc(Nc2ccc3c(c2)CC(=O)N3)ncc1C(F)(F)F)S(C)(=O)=O" . Its measured %Inh is 27

Consider "C[C@@H]1CCN(C(=O)N2CCCC2)C[C@@H]1N(C)c1ncnc2[nH]ccc12" . Its measured %Inh is 24

Consider "Cc1cccc2c(-c3ccncc3)c(-c3ccc(F)cc3)nn12.Cl" . Its measured %Inh is 0

Consider N#Cc1cccc(C(=O)NC2CCN(c3ccnc(Nc4ccc(F)cc4)n3)C2)c1 (centres unmarked) . Its measured %Inh is 0

Consider "CN(c1ccc2c(c1)nc(NCc1ccc(F)cc1)n2C)c1ccnc(Nc2ccc(CS(C)(=O)=O)cc2)n1.Cl" . Its measured %Inh is 50

Now turn to the next compound.
Consider "CC(C)c1nc(-c2cccc(NS(=O)(=O)c3ccccc3)c2)c(-c2ccnc(Nc3ccc4c(c3)CN(C)CC4)n2)s1" . Its measured %Inh is 8

###

Tested on: DAPK1
conditionLabel: concentration: 1 μM,replicates: in singlicate; n = 1
readoutLabel: %Inh (%)
Answers are plain numbers, in %.

Consider "Cc1n[nH]c2cc(Nc3ccnc(Nc4cccc(CN5CCOCC5)c4)n3)ccc12" . Its measured %Inh is 58

Consider "C[C@@H](Oc1cc(-n2cnc3cc(-c4ccncc4)ccc32)sc1C(N)=O)c1ccccc1Cl" . Its measured %Inh is 61

Consider "Cn1ccc2ncnc(Oc3ccc(NC(=O)Nc4ccnc(C(F)(F)F)c4)c(Cl)c3)c21" . Its measured %Inh is 7

Consider "CC(=O)Nc1nc2cnc(Nc3cc(NC(=O)c4cccc(CC(C)(C)C#N)c4)ccc3C)nc2s1" . Its measured %Inh is 0

Consider "Cn1ccc2ncnc(Oc3ccc(NC(=O)Nc4cc(C(C)(C)C)on4)c(Cl)c3)c21" . Its measured %Inh is 0

Consider COc1cccc(CNC(=O)NC2CCN(c3ccnc(Nc4cc(OC)c(OC)c(OC)c4)n3)C2)c1 (centres unmarked) . Its measured %Inh is 0

Consider "FC(F)(F)c1cc(Br)cc(Nc2nccc(-c3cnn4ncccc34)n2)c1" . Its measured %Inh is 2

New cases:
Consider "NC(=O)Nc1sc(-c2ccc(F)cc2)cc1C(N)=O" . Its measured %Inh is 32

###

Tested on: CDKL1
conditionLabel: concentration: 1 μM,replicates: in singlicate; n = 1
readoutLabel: %Inh
Could you give the number and then its unit, please?

Reference set (3 entries):
The compound Cl.Nc1n[nH]c2cc(-c3ccccn3)ccc12 [GSK2189892] , when measured on CDKL1, yielded %Inh of 4%

The compound Cc1ccn2nc(-c3ccc(F)cc3)c(-c3ccncc3)c2c1.Cl [GW457859] , when measured on CDKL1, yielded %Inh of 23%

The compound CN1CCN(CCCNc2nccc(-c3c(-c4ccc(F)cc4)nn4cc(C(N)=O)ccc34)n2)CC1 [GW622475] , when measured on CDKL1, yielded %Inh of 5%

Now turn to the next compound.
The compound "Cn1cc(-c2cccc3c(N)c(C(N)=O)nnc23)cn1" , when measured on CDKL1, yielded %Inh of 32%

###

Record form. Attribute: %Inh. Fill in for each entry.
System: SGK2
conditionLabel: concentration: 1 μM,replicates: in singlicate; n = 1
Numbers only, in %.

Reference set (2 entries):
The compound "Cl.Nc1n[nH]c2cc(-c3ccccn3)ccc12" , when measured on SGK2, yielded %Inh of 0

The compound "O=C(NOCC1CC1)c1cc(Br)c(F)c(F)c1Nc1ccc(I)cc1Cl" , when measured on SGK2, yielded %Inh of 0

# batch size: 5; output %Inh per entry
1. O=C(Nc1cccc(C(F)(F)F)c1)c1cccc(Oc2ccc3nccn3n2)c1
2. CSc1nccc(-c2c(-c3ccc(F)cc3)ncn2CCCN2CCOCC2)n1.Cl
3. O=C(Nc1n[nH]c2cc(-c3ccco3)ccc12)C1CC1
4. N#Cc1cccc(C(=O)NC2CCN(c3ccnc(Nc4ccc(F)cc4)n3)C2)c1 (stereo not drawn)
5. Cl.c1ccc(Oc2ccc(Nc3ccnc4cc(-c5ccc(CN6CCNCC6)o5)ccc34)cc2)nc1

a:
1: 15; 2: 0; 3: 30; 4: 5; 5: 0

# batch size: 2; output %Inh per entry
1. Cn1ccc2ncnc(Oc3ccc(NC(=O)Nc4cccc(C(F)(F)F)c4)c(Cl)c3)c21
2. NC(=O)c1ccc(-c2cc3ncnc(SCC(=O)O)c3s2)cc1

a:
1. 0
2. 0

###

System: CAMK2D
conditionLabel: concentration: 1 μM,replicates: in singlicate; n = 1
Values of %Inh greater than or equal to 2% map to Condition met; values below map to Condition not met.

q: Could you please find out whether N#Cc1cccc(C(=O)NC2CCN(c3ccnc(Nc4ccc(F)cc4)n3)C2)c1 (centres unmarked) has %Inh that meets 2% or exceeds it?
a: Condition not met

q: Could you please find out whether "O=C(NCC1CC1)c1ccc(-c2cc(C(=O)NC3CC3)ccc2F)cc1" has %Inh that meets 2% or exceeds it?
a: Condition not met

New cases:
q: Could you please find out whether "C[C@@H](Oc1cc(-n2cnc3cc(-c4cnn(C)c4)ccc32)sc1C(N)=O)c1ccccc1Cl" has %Inh that meets 2% or exceeds it?
a: Condition met

q: Could you please find out whether "O=C(Nc1cccc(C(F)(F)F)c1)c1cccc(Oc2ccc3nccn3n2)c1" has %Inh that meets 2% or exceeds it?
a: Condition not met

q: Could you please find out whether "CCn1c(-c2nonc2N)nc2cncc(Br)c21" has %Inh that meets 2% or exceeds it?
a: Condition met

q: Could you please find out whether "COC(=O)Nc1nc2cc(Oc3ccc(NC(=O)Nc4cc(C(F)(F)F)ccc4Cl)cc3)ccc2[nH]1.Cl" has %Inh that meets 2% or exceeds it?
a: Condition not met

q: Could you please find out whether "CN(c1cccc(CNc2nc(Nc3ccc4c(c3)CC(=O)N4)ncc2C(F)(F)F)c1)S(C)(=O)=O" has %Inh that meets 2% or exceeds it?
a: Condition met

###

System: PRKCI
conditionLabel: concentration: 1 μM,replicates: in singlicate; n = 1
Record form. Attribute: %Inh. Fill in for each entry.
Give bare numbers, in %.

Consider "NC(=O)Nc1sc(-c2ccc(F)cc2)cc1C(N)=O" . Its measured %Inh is 25

Consider "C[C@@H](Oc1cc(-n2cnc3cc(-c4cnn(C)c4)ccc32)sc1C(N)=O)c1ccccc1Cl" . Its measured %Inh is 46

Consider "COc1cc2nccc(Nc3ccc(Oc4ccccc4)cc3)c2cc1OC.Cl" . Its measured %Inh is 0

Consider COc1cccc(CNC(=O)NC2CCN(c3ccnc(Nc4cc(OC)c(OC)c(OC)c4)n3)C2)c1 (stereo not drawn) . Its measured %Inh is 31

Consider "CC(=O)Nc1ccc(-c2cc3ncnc(SCC(=O)O)c3s2)cc1" . Its measured %Inh is 0

# batch size: 3; output %Inh per entry
1. COc1cc2ncn(-c3cc(OCC4CCCCC4)c(C(N)=O)s3)c2cc1OC
2. COC(=O)c1cccc(NC(=O)NC2CCN(c3ccnc(NCc4ccc(F)cc4)n3)CC2)c1
3. CN(c1cccc(CNc2nc(Nc3ccc4c(c3)CC(=O)N4)ncc2C(F)(F)F)c1)S(C)(=O)=O

a:
0
28
22

Consider "CS(=O)(=O)Nc1ccc(-c2ccnc3[nH]ccc23)cc1" . Its measured %Inh is 26

###

Test system: VEGFR2
Construct: gene KDR
conditionLabel: concentration: 1 μM,replicates: in singlicate; n = 1
readoutLabel: %Inh (%)
Answers are plain numbers, in %.

Reference set (6 entries):
Consider "Cc1ccc(C(=O)Nc2ccc(Oc3ccc4nc(NC(=O)C5CC5)cn4c3)c(F)c2)c(=O)n1-c1ccccc1" . Its measured %Inh is 99.1

Consider O=C(Nc1n[nH]c2cc(-c3ccco3)ccc12)C1CC1 [SB-737447] . Its measured %Inh is 6

Consider c1ccc(Oc2ccc(Nc3ccnc4ccc(-c5ccccn5)cc34)cc2)cc1 [GW407034] . Its measured %Inh is 0

Consider Cc1ccc(Nc2ccnc(Nc3ccc4c(c3)CS(=O)(=O)C4)n2)cc1O.Cl [GW579362] . Its measured %Inh is 93.6

Consider Cl.Cl.NC[C@H](CC1CCCCC1)NC(=O)c1ccc(-c2ccnc3[nH]ccc23)s1 [GSK1581428] . Its measured %Inh is 0

Consider Cl.c1ccc(Oc2ccc(Nc3ccnc4cc(-c5ccc(CN6CCNCC6)o5)ccc34)cc2)nc1 [GW567142] . Its measured %Inh is 25

# batch size: 4; output %Inh per entry
1. C[C@@H](Oc1cc(-n2cnc3cc(-c4cnn(C)c4)ccc32)sc1C(N)=O)c1ccccc1Cl [GSK580432]
2. CN1CCN(CCNc2nc3cc(Oc4ccc(NC(=O)Nc5cc(C(F)(F)F)ccc5F)cc4)ccc3[nH]2)CC1.Cl.Cl [GW768504]
3. Cn1ccc2ncnc(Oc3ccc(NC(=O)Nc4ccnc(C(F)(F)F)c4)c(Cl)c3)c21
4. Cn1ccc2ncnc(Oc3ccc(NC(=O)Nc4cccc(C(F)(F)F)c4)c(F)c3)c21

a:
61
58
98.5
99.1

# batch size: 2; output %Inh per entry
1. Cc1ccn2nc(-c3ccc(F)cc3)c(-c3ccncc3)c2c1.Cl [GW457859]
2. CCNCC(Cc1ccccc1)NC(=O)c1cc(Br)c(-c2ccnc3[nH]ccc23)s1.Cl.Cl (centres unmarked) [GSK1383280]

a:
1. 19
2. 36

# batch size: 2; output %Inh per entry
1. Cn1cc(-c2cccc3c(N)c(C(N)=O)nnc23)cn1
2. COc1cccc(CNC(=O)NC2CCN(c3ccnc(Nc4cc(OC)c(OC)c(OC)c4)n3)C2)c1 (centres unmarked) [GSK1379765]

a:
[13, 13]
